meta.source: patent US10039288B2

System: Phytophthora infestans
Type: cell-based
conditionSet: germination, in vitro
readoutLabel: Minimal inhibitory concentration (MIC(100%)) Phytophthora infestans (ppm)
Express your answer in ppm, writing the number without its unit.

[
  {
    "compound": "C=CC(C)(O)CCC1C(=C)CC(OC(C)=O)C2C(C)(C)CCCC12C (stereo not shown) [Compound 2, larixyl acetate]",
    "measuredOn": "Phytophthora infestans",
    "unitsText": "ppm",
    "reportedResult": 125
  }
]

Attention now shifts to the item below.
**Q:** # query: Minimal inhibitory concentration (MIC(100%)) Phytophthora infestans | item C=C[C@@](C)(O)CC[C@H]1C(=C)C[C@H](O)[C@H]2C(C)(C)CCC[C@]12C [Compound 1, larixol] | system: Phytophthora infestans
**A:** 500
